Record form. Attribute: Ratio of Bcl-2 D103Y/Bcl-2 WT. Fill in for each entry.
Test System: recombinant human Bcl-2 D103Y protein (Homo sapiens (Human), UniProt P10415, D103Y)
Sequence (P10415 whole entry D103Y): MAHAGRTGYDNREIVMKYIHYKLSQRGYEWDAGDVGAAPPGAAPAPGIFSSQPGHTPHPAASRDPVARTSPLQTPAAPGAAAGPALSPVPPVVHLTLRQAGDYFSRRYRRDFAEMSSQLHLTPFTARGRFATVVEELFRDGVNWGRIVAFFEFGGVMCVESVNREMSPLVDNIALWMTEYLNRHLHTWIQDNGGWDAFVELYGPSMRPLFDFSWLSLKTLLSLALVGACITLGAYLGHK
Run Description: Bcl-2-D103Y Biochemical Assay (TR-FRET)
Type: binding
Condition Info: ratio of IC50
Answers are plain numbers.

Worked examples, 3 compounds total:
compound=CC(C)c1ccccc1[C@@H]1CN(Cc2ccnc3c2OCC(C)(C)O3)CCN1C1CC2(C1)CN(c1ccc(C(=O)NS(=O)(=O)c3ccc(NC[C@H]4CC[C@](C)(O)CC4)c([N+](=O)[O-])c3)c(Oc3cnc4[nH]cc(F)c4c3)c1)C2 reported_value=1.7
compound=CC(C)c1ccccc1[C@@H]1CN(Cc2ccc(C3COC3)cc2)CCN1C1CC2(C1)CN(c1ccc(C(=O)NS(=O)(=O)c3ccc(NC[C@H]4CC[C@](C)(O)CC4)c([N+](=O)[O-])c3)c(Oc3cnc4[nH]cc(F)c4c3)c1)C2 reported_value=1.4
compound=COc1cc(CN2CCN(C3CC4(C3)CN(c3ccc(C(=O)NS(=O)(=O)c5ccc(NCC6CCOCC6)c([N+](=O)[O-])c5)c(Oc5cnc6[nH]cc(F)c6c5)c3)C4)[C@H](c3ccccc3C(C)C)C2)ccc1C1CC1 reported_value=0.93

I need Ratio of Bcl-2 D103Y/Bcl-2 WT for every entry listed below, if you could help.
1. COc1cc(CN2CCN(C3CC4(CCN(c5ccc(C(=O)NS(=O)(=O)c6ccc(NC[C@H]7CC[C@](C)(O)CC7)c([N+](=O)[O-])c6)c(Oc6cnc7[nH]cc(F)c7c6)c5)CC4)C3)[C@H](c3ccccc3C(C)C)C2)ccc1C1CC1
2. CC(C)c1ccccc1C1CN(Cc2ccccc2F)CCN1C1CC2(CCN(c3ccc(C(=O)NS(=O)(=O)c4ccc(NC[C@H]5CC[C@](C)(O)CC5)c([N+](=O)[O-])c4)c(Oc4cnc5[nH]ccc5c4)c3)CC2)C1 (stereo partly shown)
3. CC(C)c1ccccc1C1CN(Cc2ccccc2)CCN1C1CC2(CCN(c3ccc(C(=O)NS(=O)(=O)c4ccc(NCC5(F)CCOCC5)c([N+](=O)[O-])c4)c(Oc4cnc5[nH]ccc5c4)c3)CC2)C1 (stereo not shown)
4. CC(C)c1ccccc1C1CN(Cc2ccc(S(C)(=O)=O)cc2)CCN1C1CC2(CCN(c3ccc(C(=O)NS(=O)(=O)c4ccc(NC[C@H]5CC[C@](C)(O)CC5)c([N+](=O)[O-])c4)c(Oc4cnc5[nH]ccc5c4)c3)CC2)C1 (stereo partly shown)
5. [2H]C([2H])([2H])Oc1cc(CN2CCN(C3CC4(C3)CN(c3ccc(C(=O)NS(=O)(=O)c5ccc(NC[C@H]6CC[C@](C)(O)CC6)c([N+](=O)[O-])c5)c(Oc5cnc6[nH]ccc6c5)c3)C4)[C@H](c3ccccc3C(C)C)C2)cc2ccoc12
6. CC(C)c1ccccc1[C@@H]1CN(Cc2cccc3c2OCCO3)CCN1C1CC2(CCN(c3ccc(C(=O)NS(=O)(=O)c4ccc(NC[C@H]5CC[C@](C)(O)CC5)c([N+](=O)[O-])c4)c(Oc4cnc5[nH]ccc5c4)c3)CC2)C1 [Example 79a]
7. COc1ccc(CN2CCN(C3CC4(CCN(c5ccc(C(=O)NS(=O)(=O)c6ccc(NC[C@H]7CC[C@](C)(O)CC7)c([N+](=O)[O-])c6)c(Oc6cnc7[nH]cc(Cl)c7c6)c5)CC4)C3)[C@H](c3ccccc3C(C)C)C2)cc1
8. COc1cc(CN2CCN(C3CC4(C3)CN(c3ccc(C(=O)NS(=O)(=O)c5ccc(NC[C@H]6CC[C@](C)(O)CC6)c([N+](=O)[O-])c5)c(Oc5cnc6[nH]cc(F)c6c5)c3)C4)[C@H](c3ccccc3C(C)C)C2)cc2cc(C)oc12

1. 1.8
2. 5.1
3. 1.8
4. 5.6
5. 0.87
6. 1.9
7. 1.3
8. 1.7

For each of the compounds below, note its Ratio of Bcl-2 D103Y/Bcl-2 WT.
1. CC(C)c1ccccc1[C@H]1CN(C2COC2)CCN1C1CC2(CCN(c3ccc(C(=O)NS(=O)(=O)c4ccc(NC[C@H]5CC[C@](C)(O)CC5)c([N+](=O)[O-])c4)c(Oc4cnc5[nH]ccc5c4)c3)CC2)C1 (single isomer, unassigned)
2. COc1cc(CN2CCN(C3CC4(CCN(c5ccc(C(=O)NS(=O)(=O)c6ccc(NC[C@H]7CC[C@](C)(O)CC7)c([N+](=O)[O-])c6)c(Oc6cnc7[nH]ccc7c6)c5)CC4)C3)[C@H](c3ccccc3C(C)C)C2)cc2c1OCC2(C)C
3. COc1cc(CN2CCN(C3CC4(C3)CN(c3ccc(C(=O)NS(=O)(=O)c5ccc(NC[C@H]6CC[C@](C)(O)CC6)c([N+](=O)[O-])c5)c(Oc5cnc6[nH]cc(F)c6c5)c3)C4)[C@H](c3ccccc3C(C)C)C2)ccc1OC1COC1
4. CC(C)c1ccccc1C1CN(Cc2ccc3c(c2)OCO3)CCN1C1CC2(CCN(c3ccc(C(=O)NS(=O)(=O)c4ccc(NC[C@H]5CC[C@](C)(O)CC5)c([N+](=O)[O-])c4)c(Oc4cnc5[nH]ccc5c4)c3)CC2)C1 (stereo partly shown)
5. CCOc1cc(CN2CCN(C3CC4(CCN(c5ccc(C(=O)NS(=O)(=O)c6ccc(NC[C@H]7CC[C@](C)(O)CC7)c([N+](=O)[O-])c6)c(Oc6cnc7[nH]ccc7c6)c5)CC4)C3)C(c3ccccc3C(C)C)C2)ccc1OC (stereo partly shown)

13
1.9
1.7
2.5
1.4

----------
Test System: Recombinant human Bcl-2 protein (Homo sapiens (Human), UniProt P10415)
Sequence (P10415 whole entry): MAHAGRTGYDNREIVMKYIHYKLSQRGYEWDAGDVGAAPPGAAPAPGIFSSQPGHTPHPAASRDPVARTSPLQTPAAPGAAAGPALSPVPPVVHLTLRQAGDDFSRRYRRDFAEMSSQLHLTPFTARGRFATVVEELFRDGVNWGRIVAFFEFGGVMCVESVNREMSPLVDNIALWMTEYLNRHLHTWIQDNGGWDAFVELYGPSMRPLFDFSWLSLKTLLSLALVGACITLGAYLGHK
Run Description: Bcl-2 TR-FRET Assay
Type: binding
Condition Info: Bcl-2 wild type, TR-FRET; read-out: Biochemical assay (IC50, nM) Bcl-2 WT
Recorded Metric: IC50 (nM)
Give bare numbers, in nM.

Recorded IC50, per entry:
molecule="C#Cc1cc(CN2CCN(C3CC4(CCN(c5ccc(C(=O)NS(=O)(=O)c6ccc(NC[C@H]7CC[C@](C)(O)CC7)c([N+](=O)[O-])c6)c(Oc6cnc7[nH]ccc7c6)c5)CC4)C3)C(c3ccccc3C(C)C)C2)ccc1OC (stereo partly shown)" recorded_metric=IC50 display_unit=nM reported_value=0.43
molecule="CC(C)c1ccccc1[C@@H]1CN(Cc2ccc(C3CCOC3)cc2)CCN1C1CC2(C1)CN(c1ccc(C(=O)NS(=O)(=O)c3ccc(NCC4CCC(C)(O)CC4)c([N+](=O)[O-])c3)c(Oc3cnc4[nH]cc(F)c4c3)c1)C2 (stereo partly shown)" recorded_metric=IC50 display_unit=nM reported_value=0.12
molecule="COc1cccc(CN2CCN(C3CC4(CCN(c5ccc(C(=O)NS(=O)(=O)c6ccc(NC[C@H]7CC[C@](C)(O)CC7)c([N+](=O)[O-])c6)c(Oc6cnc7[nH]ccc7c6)c5)CC4)C3)C(c3ccccc3C(C)C)C2)c1Cl (stereo partly shown)" recorded_metric=IC50 display_unit=nM reported_value=0.42

Here are 8 molecules. What values of IC50 were reported for them?
1. COc1cc(CN2CCN(C3CC4(C3)CN(c3ccc(C(=O)NS(=O)(=O)c5ccc(NC[C@H]6CC[C@](C)(O)CC6)c([N+](=O)[O-])c5)c(Oc5cnc6[nH]cc(F)c6c5)c3)C4)[C@H](c3ccccc3C(C)C)C2)ccc1OC(C)C
2. CC(C)c1ccccc1[C@H]1CN(C(C)C)CCN1C1CC2(CCN(c3ccc(C(=O)NS(=O)(=O)c4ccc(NC[C@H]5CC[C@](C)(O)CC5)c([N+](=O)[O-])c4)c(Oc4cnc5[nH]ccc5c4)c3)CC2)C1 (single isomer, unassigned) [Example 3a]
3. CC(C)c1ccccc1C1CN(Cc2cnn(C3CC3)c2)CCN1C1CC2(CCN(c3ccc(C(=O)NS(=O)(=O)c4ccc(NC[C@H]5CC[C@](C)(O)CC5)c([N+](=O)[O-])c4)c(Oc4cnc5[nH]ccc5c4)c3)CC2)C1 (stereo partly shown)
4. COc1ccccc1CN1CCN(C2CC3(CCN(c4ccc(C(=O)NS(=O)(=O)c5ccc(NC[C@H]6CC[C@](C)(O)CC6)c([N+](=O)[O-])c5)c(Oc5cnc6[nH]ccc6c5)c4)CC3)C2)C(c2ccccc2C(C)C)C1 (stereo partly shown)
5. CC(C)c1ccccc1C1CN(Cc2ccc(OC3CC3)cc2)CCN1C1CC2(CCN(c3ccc(C(=O)NS(=O)(=O)c4ccc(NC[C@H]5CC[C@](C)(O)CC5)c([N+](=O)[O-])c4)c(Oc4cnc5[nH]ccc5c4)c3)CC2)C1 (stereo partly shown)
6. COc1cc(CN2CCN(C3CC4(C3)CN(c3ccc(C(=O)NS(=O)(=O)c5ccc(NC[C@H]6CC[C@](C)(O)CC6)c([N+](=O)[O-])c5)c(Oc5cnc6[nH]ccc6c5)c3)C4)[C@H](c3ccccc3C(C)C)C2)cc(C)c1OC
7. CC(C)c1ccccc1C1CN(Cc2cccc3c2OC(C)(C)O3)CCN1C1CC2(CCN(c3ccc(C(=O)NS(=O)(=O)c4ccc(NC[C@H]5CC[C@](C)(O)CC5)c([N+](=O)[O-])c4)c(Oc4cnc5[nH]ccc5c4)c3)CC2)C1 (stereo partly shown)
8. COc1ccc(CN2CCN(C3CC4(CCN(c5ccc(C(=O)NS(=O)(=O)c6ccc(NCC7(F)CCC(C)(O)CC7)c([N+](=O)[O-])c6)c(Oc6cnc7[nH]ccc7c6)c5)CC4)C3)[C@H](c3ccccc3C(C)C)C2)cc1 (stereo partly shown) [Example 226]

0.2
0.034
0.014
0.12
0.35
0.087
0.28
0.17

// for each molecule in input: emit IC50
1. CC(C)c1ccccc1C1CN(c2ccccc2)CCN1C1CC2(CCN(c3ccc(C(=O)NS(=O)(=O)c4ccc(NC[C@H]5CC[C@](C)(O)CC5)c([N+](=O)[O-])c4)c(Oc4cnc5[nH]ccc5c4)c3)CC2)C1 (stereo partly shown)
2. COc1ccc(CN2CCN(C3CC4(CCN(c5ccc(C(=O)NS(=O)(=O)c6ccc(NC[C@H]7CC[C@](C)(O)CC7)c([N+](=O)[O-])c6)c(Oc6cnc7[nH]ccc7c6)c5)CC4)C3)C(c3cc(Cl)ccc3C(C)C)C2)cc1 (stereo partly shown)

0.86
0.8

Can you give me IC50 for all of these, one by one?
1. COc1ccc(CN2CCN(C3CC4(CCN(c5ccc(C(=O)NS(=O)(=O)c6ccc(NC[C@H]7CC[C@](C)(O)CC7)c([N+](=O)[O-])c6)c(Oc6cnc7[nH]ccc7c6)c5)CC4)C3)C(c3ccccc3C(C)C)C2)nc1OC (stereo partly shown)
2. COc1ccc(CN2CCN(C3CC4(CCN(c5ccc(C(=O)NS(=O)(=O)c6ccc(NCC7(F)CCC(C)(O)CC7)c([N+](=O)[O-])c6)c(Oc6cnc7[nH]ccc7c6)c5)CC4)C3)[C@H](c3ccccc3C(C)C)C2)cc1 (stereo partly shown) [Example 225]
3. CCc1ccccc1C1CN(Cc2ccc(OC)cc2)CCN1C1CC2(CCN(c3ccc(C(=O)NS(=O)(=O)c4ccc(NC[C@H]5CC[C@](C)(O)CC5)c([N+](=O)[O-])c4)c(Oc4cnc5[nH]ccc5c4)c3)CC2)C1 (stereo partly shown)

[0.051, 0.092, 0.074]
